Reference source: the supplement of paper PMC10307832

Provide the recorded relative viability for the entries that follow.
- System: NCI-H460
- ASSAY: relative viability (nuclei count vs DMSO), 5 days (fraction); higher = more cells survive
- MEASUREMENT_CONDITIONS: first compound 0.002 µM
Give bare numbers.

These recorded examples may help you get a feel for the data.
q: Tell me its relative viability on NCI-H460: CC(=O)O[C@@]12CO[C@@H]1C[C@H](O)[C@@]1(C)C(=O)[C@H](O)C3=C(C)[C@@H](OC(=O)[C@H](O)[C@@H](NC(=O)OC(C)(C)C)c4ccccc4)C[C@@](O)([C@@H](OC(=O)c4ccccc4)[C@H]21)C3(C)C [Docetaxel] + COc1cc2c(Oc3ccc(NC(=O)C4(C(=O)Nc5ccc(F)cc5)CC4)cc3F)ccnc2cc1OCCCN1CCOCC1 [Foretinib] (partner 0.25 µM)
a: 0.184

q: Tell me its relative viability on NCI-H460: CC(=O)O[C@@]12CO[C@@H]1C[C@H](O)[C@@]1(C)C(=O)[C@H](O)C3=C(C)[C@@H](OC(=O)[C@H](O)[C@@H](NC(=O)OC(C)(C)C)c4ccccc4)C[C@@](O)([C@@H](OC(=O)c4ccccc4)[C@H]21)C3(C)C [Docetaxel] + Nc1ncn([C@H]2C[C@H](O)[C@@H](CO)O2)c(=O)n1 [Decitabine] (partner 2 µM)
a: 0.061

q: Tell me its relative viability on NCI-H460: CC(=O)O[C@@]12CO[C@@H]1C[C@H](O)[C@@]1(C)C(=O)[C@H](O)C3=C(C)[C@@H](OC(=O)[C@H](O)[C@@H](NC(=O)OC(C)(C)C)c4ccccc4)C[C@@](O)([C@@H](OC(=O)c4ccccc4)[C@H]21)C3(C)C [Docetaxel] + CC(C)C[C@H](NC(=O)[C@H](Cc1ccccc1)NC(=O)c1cnccn1)B(O)O [Bortezomib] (partner 0.002 µM)
a: 0.0916

// each listed compound needs a value for relative viability
1. CC(=O)O[C@@]12CO[C@@H]1C[C@H](O)[C@@]1(C)C(=O)[C@H](O)C3=C(C)[C@@H](OC(=O)[C@H](O)[C@@H](NC(=O)OC(C)(C)C)c4ccccc4)C[C@@](O)([C@@H](OC(=O)c4ccccc4)[C@H]21)C3(C)C [Docetaxel] + CCNC(=O)c1noc(-c2cc(C(C)C)c(O)cc2O)c1-c1ccc(CN2CCOCC2)cc1 [Luminespib] (partner 0.01 µM)
2. CC(=O)O[C@@]12CO[C@@H]1C[C@H](O)[C@@]1(C)C(=O)[C@H](O)C3=C(C)[C@@H](OC(=O)[C@H](O)[C@@H](NC(=O)OC(C)(C)C)c4ccccc4)C[C@@](O)([C@@H](OC(=O)c4ccccc4)[C@H]21)C3(C)C [Docetaxel] + Cc1nc(NC(=O)N2CCC[C@H]2C(N)=O)sc1-c1ccnc(C(C)(C)C(F)(F)F)c1 [Alpelisib] (partner 2 µM)

a:
1. 0.0279
2. 0.016

q: Tell me its relative viability on NCI-H460: CC(=O)O[C@@]12CO[C@@H]1C[C@H](O)[C@@]1(C)C(=O)[C@H](O)C3=C(C)[C@@H](OC(=O)[C@H](O)[C@@H](NC(=O)OC(C)(C)C)c4ccccc4)C[C@@](O)([C@@H](OC(=O)c4ccccc4)[C@H]21)C3(C)C [Docetaxel] + C[C@@H](Oc1cc(-c2cnn(C3CCNCC3)c2)cnc1N)c1c(Cl)ccc(F)c1Cl [Crizotinib] (partner 1 µM)
a: 0.0086
